Data origin: ChEMBL document CHEMBL1140402

pIC50, Dihydroorotate dehydrogenase (quinone), mitochondrial (Rattus norvegicus): measured values
// pIC50 here means minus log10 of the molar concentration (mol/L)

Could you share what pIC50 was measured for O=C(O)C1=C(C(=O)Nc2c(F)c(F)c(-c3cccc(OC(F)(F)F)c3)c(F)c2F)CCC1 , tested on Dihydroorotate dehydrogenase (quinone), mitochondrial (Rattus norvegicus)?
7.11

Further cases:
Value wanted: pIC50 (Dihydroorotate dehydrogenase (quinone), mitochondrial (Rattus norvegicus)) of entry O=C(O)C1=C(C(=O)Nc2ccc(OCc3c(F)cccc3Cl)c(Cl)c2)COC1
5.92

Enter reported pIC50 observed with Dihydroorotate dehydrogenase (quinone), mitochondrial (Rattus norvegicus) for O=C(O)C1=C(C(=O)Nc2ccc(-c3ccccc3)cc2)CCC1
Sequence (Q63707 whole entry): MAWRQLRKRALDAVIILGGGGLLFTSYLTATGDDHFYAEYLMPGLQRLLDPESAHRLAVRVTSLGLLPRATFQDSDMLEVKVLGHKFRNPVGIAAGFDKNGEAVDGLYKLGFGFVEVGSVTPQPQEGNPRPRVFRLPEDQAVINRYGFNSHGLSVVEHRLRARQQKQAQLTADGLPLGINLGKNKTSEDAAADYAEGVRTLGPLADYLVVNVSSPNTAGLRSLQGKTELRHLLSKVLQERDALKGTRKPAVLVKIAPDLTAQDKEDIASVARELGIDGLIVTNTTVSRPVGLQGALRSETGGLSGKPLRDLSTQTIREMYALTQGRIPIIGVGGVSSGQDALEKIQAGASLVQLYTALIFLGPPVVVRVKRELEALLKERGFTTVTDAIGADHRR
5.82
